Tested on: S. marcescens IAM 1184
protocol: in vitro antibacterial activity, agar plate dilution method (MIC)
Format: cell-based
study-conditions: S. marcescens IAM 1184; 10^6 CFU/ml
The entries below come with measured Minimum Inhibitory Concentration (MIC) values attached.
Numeric answer only, unit µg/mL assumed.

Worked cases, Minimum Inhibitory Concentration (MIC) given:
compound: Nc1nc(C(=NOC(C(=O)O)c2ccc(O)c(O)c2)C(=O)NC2C(=O)N3C(C(=O)O)=C(CSc4nnc(-c5ccc(O)c(O)c5)s4)CSC23)cs1 (single isomer, unassigned) [Example 38 DA]
unit-string: µg/mL
Minimum Inhibitory Concentration (MIC): 0.025

compound: Nc1nc(C(=NOC(C(=O)O)c2ccccc2)C(=O)NC2C(=O)N3C(C(=O)O)=C(CSc4nc(C(=O)O)c(-c5ccc(O)c(O)c5)s4)CSC23)cs1 (single isomer, unassigned) [Example 51 DB]
unit-string: µg/mL
Minimum Inhibitory Concentration (MIC): 0.05

compound: Nc1nc(C(=NOC(C(=O)O)c2ccc(O)c(O)c2)C(=O)NC2C(=O)N3C(C(=O)O)=C(CSc4nnc(-c5ccc(O)c(O)c5)s4)CSC23)cs1 (single isomer, unassigned) [Example 38 DB]
unit-string: µg/mL
Minimum Inhibitory Concentration (MIC): 0.1

Let us move to another entry and its Minimum Inhibitory Concentration (MIC).
In: Report measured Minimum Inhibitory Concentration (MIC) on S. marcescens IAM 1184; entry: Nc1nc(/C(=N/OC(C(=O)O)c2ccccc2)C(=O)N[C@@H]2C(=O)N3C(C(=O)O)=C(CSc4nnc(-c5ccc(O)c(O)c5)o4)CS[C@H]23)cs1 (single isomer, unassigned) [Example 24 DB]
Out: 0.05

====

System: Ps. cepacia 23
protocol: in vitro antibacterial activity, agar plate dilution method (MIC)
Assay type: cell-based, Pseudomonas cepacia
study-conditions: Burkholderia cepacia, 16 h; Ps. cepacia 23; 10^6 CFU/ml; read-out: Minimum Inhibitory Concentration (MIC)
The entries below come with measured MIC values attached.

Worked cases, MIC given:
molecule: CC(C)O/N=C(\C(=O)N[C@@H]1C(=O)N2C(C(=O)O)=C(CSc3nnc(-c4ccc(O)c(O)c4)o3)CS[C@H]12)c1csc(N)n1
MIC: < 0.006 µg/mL

molecule: C#CCON=C(C(=O)NC1C(=O)N2C(C(=O)O)=C(CSc3nc(C(=O)O)c(-c4ccc(O)c(O)c4)s3)CSC12)c1csc(N)n1 (stereo not drawn)
MIC: < 0.006 µg/mL

In: Determine its reported MIC: CON=C(C(=O)NC1C(=O)N2C(C(=O)O)=C(CSc3nc(-c4ccc(O)c(O)c4)cs3)CSC12)c1csc(N)n1 (stereo not drawn)
Out: 0.2 µg/mL

In: Determine its reported MIC: Nc1nc(/C(=N/OC2(C(=O)O)CC2)C(=O)N[C@@H]2C(=O)N3C(C(=O)O)=C(CSc4nnc(-c5ccc(O)c(O)c5)s4)CS[C@H]23)cs1
Out: < 0.006 µg/mL

In: Determine its reported MIC: C=CCON=C(C(=O)NC1C(=O)N2C(C(=O)O)=C(CSc3nc(C(=O)O)c(-c4ccc(O)c(O)c4)s3)CSC12)c1csc(N)n1 (stereo not drawn)
Out: 0.025 µg/mL

In: Determine its reported MIC: Nc1nc(C(=NOCC(=O)O)C(=O)NC2C(=O)N3C(C(=O)O)=C(CSc4nc(-c5ccc(O)c(O)c5)cs4)CSC23)cs1 (stereo not drawn)
Out: < 0.006 µg/mL

====

System: M. morganii GN5407
protocol: in vitro antibacterial activity, agar plate dilution method (MIC)
Type: cell-based
study-conditions: Morganella morganii, 16 h; *M. morganii GN5407, lactamase-producing strain; 10^6 CFU/ml; read-out: Minimum Inhibitory Concentration (MIC)
Counter-ions that a name gives are not always drawn.
measurement-name: MIC

molecule: CO/N=C(\C(=O)N[C@@H]1C(=O)N2C(C(=O)O)=C(CSc3nnc(-c4ccccc4)o3)CS[C@H]12)c1csc(N)n1 [compound 1, trifluoroacetate, reference compound]
measurement-name: MIC
observed: 0.78 µg/mL

molecule: CO/N=C(\C(=O)N[C@@H]1C(=O)N2C(C(=O)O)=C(COC(C)=O)CS[C@H]12)c1csc(N)n1 [cefotaxime, reference compound]
measurement-name: MIC
observed: 0.05 µg/mL

molecule: CC(C)(O/N=C(\C(=O)N[C@@H]1C(=O)N2C(C(=O)O)=C(CSc3nnc(-c4ccccc4)s3)CS[C@H]12)c1csc(N)n1)C(=O)O [compound 6, reference compound]
measurement-name: MIC
observed: 6.25 µg/mL

Let us move to another entry and its MIC.
In: Determine its reported MIC: CO/N=C(\C(=O)N[C@@H]1C(=O)N2C(C(=O)O)=C(CSc3nnc(-c4ccccc4)s3)CS[C@H]12)c1csc(N)n1 [compound 5, trifluoroacetate, reference compound]
Out: 0.78 µg/mL

====

Test system: Ps. aeruginosa AK 109
protocol: in vitro antibacterial activity, agar plate dilution method (MIC)
Type: cell-based, Pseudomonas aeruginosa
study-conditions: Pseudomonas aeruginosa, AK109, 16 h, Ps. aeruginosa AK 109; 10^6 CFU/ml; read-out: Minimum Inhibitory Concentration (MIC)
Structures can show the parent of a compound that is named as a salt.
measurement-name: MIC
Give me the value, and tack the unit on after it.

Worked cases, MIC given:
molecule: CO/N=C(\C(=O)N[C@@H]1C(=O)N2C(C(=O)O)=C(CSc3ncc(-c4ccccc4)o3)CS[C@H]12)c1csc(N)n1 [compound 21, reference compound]
measurement-name: MIC
observed: 50 mg/L
//
molecule: CO/N=C(\C(=O)N[C@@H]1C(=O)N2C(C(=O)O)=C(CSc3nnc(-c4ccccc4)o3)CS[C@H]12)c1csc(N)n1 [compound 1, trifluoroacetate, reference compound]
measurement-name: MIC
observed: 50 mg/L

In: Determine its reported MIC: CC(C)(O/N=C(\C(=O)N[C@@H]1C(=O)N2C(C(=O)O)=C(CSc3ncc(-c4ccc(O)cc4)o3)CS[C@H]12)c1csc(N)n1)C(=O)O [compound 24, reference compound]
Out: 25 mg/L

In: Determine its reported MIC: CC(C)(O/N=C(\C(=O)N[C@@H]1C(=O)N2C(C(=O)O)=C(CSc3nc(-c4ccccc4)cs3)CS[C@H]12)c1csc(N)n1)C(=O)O [compound 11, reference compound]
Out: 50 mg/L

In: Determine its reported MIC: CO/N=C(\C(=O)N[C@@H]1C(=O)N2C(C(=O)O)=C(CSc3nc(-c4ccc(OC)c(OC)c4)cs3)CS[C@H]12)c1csc(N)n1 [compound 13, trifluoroacetate, reference compound]
Out: 100 mg/L

====

Tested on: P. vulgaris No. 33
protocol: in vitro antibacterial activity, agar plate dilution method (MIC)
Type: cell-based
study-conditions: Proteus vulgaris, NO.33, 16 h, read-out: Minimum Inhibitory Concentration (MIC), *P. vulgaris No. 33, lactamase-producing strain; 10^6 CFU/ml
Procedure: The in vitro antibacterial activities of the compounds of the present invention against various microorganisms, were measured by the following agar plate dilution method. One platinum loopfull of each test microorganism incubated overnight in Mueller Hinton broth, was inoculated to Mueller Hinton agar (inoculum size: 10^6 CFU/ml). […] After incubation at 37° C. for 16 hours, the minimum inhibitory concentrations (MIC: μg/ml) were measured.
measurement-name: MIC (µg/mL)
Numeric answer only, unit µg/mL assumed.

In: Determine its reported MIC: Nc1nc(/C(=N/OC(C(=O)O)c2ccc(O)c(O)c2)C(=O)N[C@@H]2C(=O)N3C(C(=O)O)=C(CSc4ncc(-c5ccc(O)c(O)c5)o4)CS[C@H]23)cs1 (stereo partly drawn)
Out: 0.1

In: Determine its reported MIC: Nc1nc(/C(=N/OC(C(=O)O)c2ccc(O)c(O)c2)C(=O)N[C@@H]2C(=O)N3C(C(=O)O)=C(CSc4nnc(-c5ccc(O)c(O)c5)o4)CS[C@H]23)cs1 (stereo partly drawn)
Out: 0.78

In: Determine its reported MIC: Nc1nc(/C(=N/OCC(=O)O)C(=O)N[C@@H]2C(=O)N3C(C(=O)O)=C(CSc4nnc(-c5ccc(O)c(O)c5)o4)CS[C@H]23)cs1
Out: 0.025

====

System: E. coli CSH(RE45)
protocol: microbe, parasite or virus in culture
Assay type: cell-based
study-conditions: Escherichia coli, 16 h, read-out: Minimum Inhibitory Concentration (MIC), *E. coli CSH(RE45), lactamase-producing strain; 10^6 CFU/ml
The entries below come with measured MIC values attached.
Numeric answer only, unit µg/mL assumed.

Worked cases, MIC given:
compound: CON=C(C(=O)NC1C(=O)N2C(C(=O)O)=C(CSc3nc(-c4ccc(O)c(O)c4)cs3)CSC12)c1csc(N)n1 (stereo not drawn) [compound 39]
observed: 0.1

compound: Nc1nc(C(=NOCC(=O)O)C(=O)NC2C(=O)N3C(C(=O)O)=C(CSc4nc(-c5ccc(O)c(O)c5)cs4)CSC23)cs1 (stereo not drawn) [Ex. 43]
observed: 0.025

compound: Nc1nc(C(=NOCc2ccccc2)C(=O)NC2C(=O)N3C(C(=O)O)=C(CSc4nc(C(=O)O)c(-c5ccc(O)c(O)c5)s4)CSC23)cs1 (stereo not drawn) [Ex. 57]
observed: 0.1

compound: CO/N=C(\C(=O)N[C@@H]1C(=O)N2C(C(=O)O)=C(CSc3ncc(-c4ccccc4)o3)CS[C@H]12)c1csc(N)n1 [compound 21, reference compound]
observed: 1.56

compound: CC(=O)Oc1ccc(-c2nc(SCC3=C(C(=O)O)N4C(=O)C(NC(=O)C(=NOC5(C(=O)O)CC5)c5csc(N)n5)C4SC3)sc2CC(=O)O)cc1OC(C)=O (stereo not drawn) [Example 60 (II)]
observed: 3.12

Let us move to another entry and its MIC.
In: Determine its reported MIC: CO/N=C(\C(=O)N[C@@H]1C(=O)N2C(C(=O)O)=C(CSc3nnc(-c4ccc(O)c(O)c4)s3)CS[C@H]12)c1csc(N)n1 [Ex. 25]
Out: 0.025
